Consider the following compounds; for each one, report its pIC50.
# assay.procedure: DNDI: Cytotoxicity against L-6 rat myoblasts from skeletal muscle cells
# experimental.setup: L6 rat skeletal muscle myoblast cells
pIC50: −log10 of the molar value.

Enquiry: Sample OC(c1ccc(C(F)(F)F)cc1)(c1cccnc1)c1ccccc1F (stereo unspecified) — what was its pIC50?
Return: < 4.00

Enquiry: Another: "CC1=C(C(=O)Nc2ccccc2)SCCO1"
Return: < 4.00

Enquiry: Another: OC(c1ccc(Cl)cc1)(c1cccnc1)c1cc(F)ccc1F (stereo unspecified)
Return: < 4.00

Enquiry: Another: OC(c1cccnc1)(c1cccc(C(F)(F)F)c1)c1ccccc1Cl (stereo unspecified)
Return: 4.24

Enquiry: Another: "O=[N+]([O-])c1ccc(O/N=C/c2cc(Br)c(O)c(Br)c2)c([N+](=O)[O-])c1"
Return: 4.08

Enquiry: Another: CC(Oc1ccc(Cl)cc1Cl)C(=O)O (stereo unspecified)
Return: < 4.00

###

# assay.procedure: DNDI: Cytotoxicity against L-6 rat myoblasts from skeletal muscle cells
# experimental.setup: L6 rat skeletal muscle myoblast cells, IC50
Consider the following compounds; for each one, report its pIC50.
Keep it numeric: pIC50 is minus log10 of the concentration in mol/L.

Enquiry: Sample CS(=O)(=O)c1ccc(N2CCC(NC(c3cccnc3)c3ccc(Cl)cc3F)CC2)cc1 (stereo not drawn) — what was its pIC50?
Return: 4.30

Enquiry: Another: Fc1ccc(N2CCC(NC(c3ccc(Cl)cc3)c3cccnc3)CC2)cc1C(F)(F)F (stereo not drawn)
Return: 4.28

Enquiry: Another: COc1ccc(N2CCC(NC(c3cccnc3)c3ccc(Cl)cc3F)CC2)cc1F (stereo not drawn)
Return: 4.32

Enquiry: Another: CCCCOC(Cc1ccc(Cl)nc1)c1ccc(Cl)cc1Cl (stereo not drawn)
Return: 4.04

Enquiry: Another: O=C(Nc1ccc(Cl)cc1)NC1CCN(C(c2ccc(Cl)cc2)c2cccnc2)CC1 (stereo not drawn)
Return: 4.68

Enquiry: Another: N#Cc1cc(N2CCC(NC(c3cccnc3)c3ccc(Cl)cc3F)CC2)ccc1F (stereo not drawn)
Return: 4.42

Enquiry: Another: O=C(c1ccc(C(F)(F)F)cc1)N1CCN(C(c2ccc(Cl)cc2)c2cncnc2)CC1 (stereo not drawn)
Return: 4.27

Enquiry: Another: CC(C)Oc1ccc(C(c2cccnc2)N2CCC(NC(=O)Nc3ccccc3)CC2)cc1 (stereo not drawn)
Return: 4.13

Enquiry: Another: O=S(=O)(NC1CCN(C(c2cnccn2)c2ccc(F)cc2F)CC1)c1ccc(C(F)(F)F)cc1 (stereo not drawn)
Return: 4.53

Enquiry: Another: O=C(Nc1ccccc1)N1CCN(C(c2ccc(Cl)cc2)c2cncnc2)CC1 (stereo not drawn)
Return: 4.08

Enquiry: Another: Cc1ncsc1C(=O)N1CCN(C(c2cccnc2)c2ccc(C(F)(F)F)cc2F)CC1 (stereo not drawn)
Return: 4.01

Enquiry: Another: OC(c1ccc(Cl)cc1)(c1cncnc1)c1ccc(Cl)cc1F (stereo not drawn)
Return: 4.27

Enquiry: Another: OC(c1ccc(Cl)cc1)(c1cncnc1)c1cccc(Cl)c1 (stereo not drawn)
Return: 4.24

Enquiry: Another: O=C(NC1CCN(C(c2cncnc2)c2ccc(Cl)cc2F)CC1)c1ccc(F)cc1 (stereo not drawn)
Return: 4.22

Enquiry: Another: CC(C)c1ccc(S(=O)(=O)NC(c2ccc(C(F)(F)F)cc2)c2cnccn2)cc1 (stereo not drawn)
Return: 4.22

Enquiry: Another: Fc1ccc(N2CCC(NC(c3cccnc3)c3ccc(Cl)cc3F)CC2)cc1Cl (stereo not drawn)
Return: 4.26

Enquiry: Another: Fc1ccccc1N1CCC(NC(c2ccc(C(F)(F)F)cc2)c2cccnc2)CC1 (stereo not drawn)
Return: 4.27

Enquiry: Another: CC(C)n1cc(C(NC2CCN(c3ccc(C(F)(F)F)cc3)CC2)c2cccnc2)cn1 (stereo not drawn)
Return: 4.11

Enquiry: Another: O=C(Nc1ccccc1)N1CCC(NC(c2ccc(C(F)(F)F)cc2)c2cccnc2)CC1 (stereo not drawn)
Return: 4.19

Enquiry: Another: "CC1(C)CC(=O)C(C(=O)c2ccc(Cl)cc2Cl)C(=O)C1"
Return: 4.12

Enquiry: Another: OC(c1ccc(Cl)cc1)(c1cccnc1)c1sccc1Cl (stereo not drawn)
Return: 4.15

Enquiry: Another: Clc1ccc(C(NCCN2CCOCC2)(c2cccnc2)c2ccccc2Cl)cc1 (stereo not drawn)
Return: 4.25

Enquiry: Another: O=C(C1CCCCC1)N1CCC(NC(c2ccc(C(F)(F)F)cc2)c2cnccn2)CC1 (stereo not drawn)
Return: 4.08

Enquiry: Another: FC(F)(F)c1ccc(C(NC2CCN(c3nccs3)CC2)c2cccnc2)cc1 (stereo not drawn)
Return: 4.25

###

Consider the following compounds; for each one, report its IC50.
# assay.procedure: DNDI: Cytotoxicity against L-6 rat myoblasts from skeletal muscle cells
# experimental.setup: L6 rat skeletal muscle myoblast cells, IC50
Could you give me the number in µM? Just the number is fine.

Enquiry: Sample O=C(NC1CCN(C(c2ccc(C(F)(F)F)cc2)c2cccnc2)CC1)c1c(F)cccc1F (stereo not drawn) — what was its IC50?
Return: 56.7

Enquiry: Another: FC(F)(F)c1ccc(C(NCC2CCCCC2)c2cccnc2)cc1 (stereo not drawn)
Return: 54

###

Consider the following molecules; for each one, report its IC50.
# assay.procedure: DNDI: Cytotoxicity against L-6 rat myoblasts from skeletal muscle cells
# experimental.setup: L6 rat skeletal muscle myoblast cells, IC50
Could you give me the number in µM? Just the number is fine.

Enquiry: Sample O=C(NC1CCN(C(c2ccc(C(F)(F)F)cc2)c2cnccn2)CC1)c1ccc(C(F)(F)F)cc1 (stereo not given) — what was its IC50?
Return: 57.4

Enquiry: Another: "OC(c1ccc(Cl)cc1)(c1ccc(Cl)cc1)c1cccc(F)c1"
Return: 53.2

###

Consider the following compounds; for each one, report its pIC50.
# assay.procedure: DNDI: Cytotoxicity against L-6 rat myoblasts from skeletal muscle cells
# experimental.setup: L6 rat skeletal muscle myoblast cells, IC50
Keep it numeric: pIC50 is minus log10 of the concentration in mol/L.

Enquiry: Sample CC(C)c1ccc(C(O)(c2ccc(C(F)(F)F)cc2)c2cncnc2)cc1 (stereo not drawn) — what was its pIC50?
Return: 4.25

Enquiry: Another: Cc1ncsc1C(=O)N1CCN(C(c2cccnc2)c2ccc(Cl)cc2F)CC1 (stereo not drawn)
Return: 4.03

Enquiry: Another: O=C(Nc1ccccc1)NC1CCN(C(c2ccc(C(F)(F)F)cc2)c2cccnc2)CC1 (stereo not drawn)
Return: 4.50

Enquiry: Another: Clc1ccc(CN2CCC(NC(c3ccc(Cl)cc3)c3cccnc3)CC2)cc1 (stereo not drawn)
Return: 4.69

Enquiry: Another: O=S(=O)(c1ccc(Cl)cc1)N1CCC(NC(c2cnccn2)c2ccc(F)cc2F)CC1 (stereo not drawn)
Return: 4.11

Enquiry: Another: Cc1noc(C)c1C(O)(c1ccc(Cl)cc1)c1ccc(C(F)(F)F)cc1 (stereo not drawn)
Return: 4.24

Enquiry: Another: N#Cc1cnc(N2CCC(NC(c3ccc(Cl)cc3)c3cccnc3)CC2)s1 (stereo not drawn)
Return: 4.31

Enquiry: Another: Fc1cc(Cl)ccc1C(NC1CCN(c2nccs2)CC1)c1cccnc1 (stereo not drawn)
Return: 4.25

Enquiry: Another: O=C(Nc1ccc(Cl)cc1)N1CCC(NC(c2ccc(Cl)cc2)c2cccnc2)CC1 (stereo not drawn)
Return: 4.36

Enquiry: Another: Cc1ccsc1C(O)(c1ccc(Cl)cc1)c1cccnc1 (stereo not drawn)
Return: 4.13

Enquiry: Another: CCCCC(O)(c1ccc(Cl)cc1)c1cccnc1 (stereo not drawn)
Return: 4.22

Enquiry: Another: O=S(=O)(Cc1ccccc1)N1CCN(C(c2ccc(Cl)cc2)c2cncnc2)CC1 (stereo not drawn)
Return: 4.20

Enquiry: Another: "Cc1ccsc1C(O)(c1ccc(Cl)cc1)c1ccc(Cl)cc1"
Return: 4.23

Enquiry: Another: Cc1cc(C(=O)NC2CCN(C(c3ccc(C(F)(F)F)cc3)c3cccnc3)CC2)no1 (stereo not drawn)
Return: 4.32

Enquiry: Another: CCCCOC(c1ccc(Cl)cc1)c1cccnc1 (stereo not drawn)
Return: 4.20

Enquiry: Another: O=C(NC1CCCC1)NC1CCN(C(c2ccc(Cl)cc2)c2cccnc2)CC1 (stereo not drawn)
Return: 4.20

Enquiry: Another: Fc1cc(Cl)ccc1C(NC1CCN(c2c(F)cccc2F)CC1)c1cccnc1 (stereo not drawn)
Return: 4.25

Enquiry: Another: "Nc1nccnc1C(O)(c1ccc(Cl)cc1)c1ccc(Cl)cc1"
Return: 4.20

Enquiry: Another: O=C(N1CCN(C(c2ccc(C(F)(F)F)cc2)c2cccnc2)CC1)C(F)(F)F (stereo not drawn)
Return: 4.20

Enquiry: Another: CC(C)(C)OC(=O)N1CCN(C(c2ccc(Cl)cc2)c2cccnc2)CC1 (stereo not drawn)
Return: 4.32

Enquiry: Another: CC(C)CNC(=O)c1cccc(C(O)(c2ccc(Cl)cc2)c2cccnc2)c1 (stereo not drawn)
Return: 4.22

###

Consider the following compounds; for each one, report its IC50.
# assay.procedure: DNDI: Cytotoxicity against L-6 rat myoblasts from skeletal muscle cells
# experimental.setup: L6 rat skeletal muscle myoblast cells, IC50
Could you give me the number in µM? Just the number is fine.

Enquiry: Sample OC(c1ccc(Cl)cc1)(c1ccc(C(F)(F)F)cc1)c1cc(-c2ccccc2)on1 (stereo not given) — what was its IC50?
Return: 18.7

Enquiry: Another: Cn1cc(C(=O)NC2CCN(C(c3ccc(C(F)(F)F)cc3)c3cccnc3)CC2)c(C(F)(F)F)n1 (stereo not given)
Return: 53.4

Enquiry: Another: O=S(=O)(NC1CCN(C(c2cnccn2)c2ccc(F)cc2F)CC1)c1ccccc1 (stereo not given)
Return: 67.7

Enquiry: Another: FC(F)(F)c1ccc(N2CCC(NC(c3ccc(Cl)cc3)c3cccnc3)CC2)cc1 (stereo not given)
Return: 53.5

Enquiry: Another: FC(F)(F)c1ccc(C(NC2CCN(c3ncccn3)CC2)c2cccnc2)cc1 (stereo not given)
Return: 55.1

Origin of values: ChEMBL document CHEMBL1862790
